protocol_text: Inhibition of p56 Lck tyrosine kinase
IC50 for assorted compounds
# value in µM; strip the unit string

structure_smiles	IC50, µM
COc1cc(/C=C/c2ccccn2)cc(OC)c1OC	2180

With those in mind, consider the next compound.
## Task Consider the compound COc1cc(/C=C/c2cccnc2)cc(OC)c1OC and give its measured IC50.
## Result 516
